src = the supplement of paper PMC10567573

# Test: protein stability index of a GFP-peptide fusion (GPS, HEK-293T) (PSI 1-6); higher = more stable;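 also: 24-mer peptide tiles fused after GFP, lentivirally expressed, FACS-sorted into six equal bins by GFP/DsRed ratio, decoded by Illumina sequencing, PSI is the read-weighted mean bin number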
# Conditions used: treatment: DMSO; c terminus: a fixed tail appended
Entries and their protein stability index values follow.
// response body must contain only the number

Illustrative cases are given below, each with its answer.
Entry sequence	protein stability index
VTMSSLFKHILRTEGAFGLYRGLA [SLC25A25]	2.5
LLPEDMALRNLPPLRAAHRRFNFD [SMG5]	3.06
AKMAGIGIREASSGGGGSSSNFHI [KRT15]	3.16
AFHGLSLGLSLTNGLALGPDLNIL [PSD2]	2.57
SNKYGFGYQLSDHTVGVLFNNGAH [PLK2]	2.61
KNHEEEMKEFSNQVVGQVNVEMDA [KRT13]	5.54
LRHLSPTPSEEHMKNKNNVTEFIL [OR4A15]	3.27
NRELWKEFSSVGTEMIITKAGRRM [TBX6]	2.88
NKKHIHSRSTLECAYRTHLVAGIG [SMG5]	2.37
AVAFMPEDITKGTQSLPTASASKF [AUP1]	4.22

Item under review: RLQRKLVEPKHCFTSPDYQQQCHE [SDE2] . Reported protein stability index? 3.67

Item LPAGPGEEWERRPQEPRPPKRATK [CPXM2] has what recorded protein stability index? 5.04

Sample LPAEVAGLSQVLLRGGGQVLLGWT [POMT2] — what was its protein stability index? 2.26

---

# Test: protein stability index of a GFP-peptide fusion (GPS, HEK-293T) (PSI 1-6); higher = more stable
# Conditions used: treatment: DMSO; c terminus: a fixed tail appended
Listed here are sequences together with their documented protein stability index.

Entry sequence	Value type	Reading
RPCRKFLLTGQCDFGSNCRFSHMS [ZMAT5]	protein stability index	4.2
TEMAASSQGNFEGNFESLDLAEFA [FUNDC2]	protein stability index	5.21
YMYLVIEELTREAVAVDVAVPKRL [HAGHL]	protein stability index	2.57
DLPKAKTRAADLLVNPLDPRNADK [SRPK2]	protein stability index	4.85

Look up protein stability index for this sequence: RVSDVQKVLQGGEQEIQFEDFTNT [PKD2L1] 4.8

Field request: protein stability index | item: DDVEMKNGITQGDKLRALKSQRQP [CDC14A] 4.91

Request the reported protein stability index associated with PNIPKAKSLDGVTNDRTASQGQWG [DHCR7] 4.65

---

# Test: protein stability index of a GFP-peptide fusion (GPS, HEK-293T) (PSI 1-6); higher = more stable
# Conditions used: treatment: DMSO; c terminus: a fixed tail appended
protein stability index below 3 gives rule not met; protein stability index at or above it gives rule met.

Take a look at these entries with their results.
Entry sequence	Group
YAVGGSDGTSPLNTVERYNPQENR [KLHL20]	rule met
LTEDYFPSVPDNAELVLLTLGQAW [DFFB]	rule not met
VDNISTLDSEIKKNSDGMEAAGVQ [CD207]	rule met

protein stability index >= 3 for TISEFILSEDYNKMTPVKNYQAHQ [WDFY2] ? rule not met

Is protein stability index at least 3? Consider VVRLLLEHYRVQTQQTGTVRFDGY [FEM1B] rule not met

---

# Test: protein stability index of a GFP-peptide fusion (GPS, HEK-293T) (PSI 1-6); higher = more stable
# Conditions used: treatment: DMSO; c terminus: a fixed tail appended
Value type: protein stability index

Entry sequence	protein stability index
GYLDYRKKAIKDLGISPSTCSFNP [GLT8D2]	2.85

// returns reported protein stability index for input TLYRPEEGYCQAQAPIAAVLLMHM [TBC1D10A] 2.52

Please look up its protein stability index: KVLQGGEQEIQFEDFTNTLRELGH [PKD2L1] 3.08

Requested field: protein stability index. Item: GHSPARAGKQRMKEKEQENERKVA [DDIT3] 5.39

Please look up its protein stability index: IQHRRTHTDSKYEHAIAEAQKNMY [ZNF396] 3.78

Quick check: protein stability index of SLEMDSDEDDSEELEEDDGHGAEQ [EHMT1] ? 5.45

Given the entry LKPHLEGAAFRDHQLLEPIRDFEA [TRIM29] , report its measured protein stability index. 3.88

# get_value(readout='protein stability index', item= EAELRRRDTFYKEQLERIERKNAE [CHCHD6] ) 5.1

So what's the measured protein stability index for this one? QASPYHPGSCGAGAPSPGSSDVST [ELF3] 4.57

Which protein stability index is reported for this sequence? EIIELRRTVNALEIELQAQHNLRY [KRT33B] 2.21

Would you mind telling me what protein stability index value was observed for PAPALAPDQLPQNNTLVALPIVAI [FBXO28] ? 2.91

Can you share its protein stability index? I mean this sequence: KERDLRDVGDWRKNIEEKSGMEGR [TNNI2] 5.07

Fill blank: measured protein stability index of the sequence LQNMGLLLDKLAKENQDIRLLQAQ [PBXIP1] is ____. 2.82

---

protein stability index: recorded values
# Test: protein stability index of a GFP-peptide fusion (GPS, HEK-293T) (PSI 1-6); higher = more stable
# Conditions used: treatment: DMSO; c terminus: a fixed tail appended
Answer using only a numeral; do not append any unit.

Solved entries (count: 6):
Entry sequence	Value type	Reading
SDVNDNAPRFNQQLYTAYILENRP [PCDHGC5]	protein stability index	2.87
SDNSGQVSPPESPTVTTSWQSESL [BCL2L13]	protein stability index	5.13
DISETFNHANGLTLVSRAHQLVME [PPP2CA]	protein stability index	2.79
QTSSSTFGGGSTRGGSLLAGGGGF [KRT15]	protein stability index	3.57
LRNCKTYQARKPLWFYNTSLKFFL [RHOBTB3]	protein stability index	2.68
ETLSITNCRLSEGDVMHLSQSPSV [PRAME]	protein stability index	3.2

Next sequence, please.
Field request: protein stability index | item: NQGFLKVERYHNLCQKQVKAQLPR [FBXO28] 2.76

---

# Test: protein stability index of a GFP-peptide fusion (GPS, HEK-293T) (PSI 1-6); higher = more stable
# Conditions used: treatment: MLN4924 1 uM, 8 h; c terminus: a fixed tail appended
Value type: protein stability index
Form rule: numeric answer, no unit written next to it.

Entry sequence	Reading
KKAEQKKKEKIIEDKTFGLKNKKG [ZC3H15]	4.92
CNCALEELRLVFGPLGDQLHAQLR [ELF3]	2.33
PNIPKAKSLDGVTNDRTASQGQWG [DHCR7]	4.84

Query: protein stability index; subject: NSMAPHPARDYVVLRTWRTNLPKG [DLC1] 2.64

Suppose we examine the sequence ASVINNMLAEIFCQTGGVEDQEEW [ZBED1] ; what protein stability index value has been reported? 3.89

Give its protein stability index value. Item: ERAIRTQPKQLIVDDLKGSLKEDL [SPRY1] 4.85

---

# Test: protein stability index of a GFP-peptide fusion (GPS, HEK-293T) (PSI 1-6); higher = more stable
# Conditions used: treatment: DMSO; c terminus: a fixed tail appended
Param threshold (3) applies to protein stability index; output fulfilled when value >= threshold, not fulfilled when value < threshold.

Entry sequence	Group
TQRQYKEDESQSEEENDYRNLDAS [CEP70]	fulfilled
ACYFGHRQVVQDLLKAGAEVNVLN [OSBPL1A]	not fulfilled
FSPAKPKPSKELKPLLGSAVLGLL [MYORG]	not fulfilled
RKRIHDSRVAGFNPALQLILTRTD [TOR1AIP2]	fulfilled
LASLVSQGMIQLALSGASQPGPSG [RETREG3]	not fulfilled
SAAGHLDVVRSLLRRGASVNRTTR [FEM1A]	fulfilled

Please find the next sequence below.
Has IESLNEELAYMKKNHEEEMKEFSN [KRT13] a recorded protein stability index greater than or equal to 3? fulfilled

---

# Test: protein stability index of a GFP-peptide fusion (GPS, HEK-293T) (PSI 1-6); higher = more stable
# Conditions used: treatment: DMSO; c terminus: a fixed tail appended
Returns one of True or False; True when protein stability index is >= 3.

Examples from the recorded data:
Entry sequence	Group
PRNSDMKNQGEENGFPDSTGDPLP [EDARADD]	True
AYPFYWAWLPQAKVPFSQEIKDLI [PI4K2A]	False

Item ELTLSKTDLEMQIESLNEELAYMK [KRT13] with protein stability index of 3 or above? True

In plain terms: is recorded protein stability index at least 3 for HKESKMTIFEKENFIGRQWEISDD [CRYBA1] ? True

Determine whether measured protein stability index meets or exceeds 3 for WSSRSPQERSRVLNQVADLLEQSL [ALDH8A1] False

Please tell me: is the sequence SVAEGYYSHRETVNGSWYIQDLCE [CASP6] at or over 3 in terms of protein stability index? True

Does protein stability index meet or surpass 3 for KDVRRHLVVHTGCKDFLCQFCAQR [PLAGL1] ? True

Answer whether protein stability index of EEKSVKNTSIRVADFGSATFDHEH [CLK3] is greater than or equal to 3. True

Check the entry TGELVGPFVSAMPTPMPHNKGTRF [ZBED2] : does protein stability index equal or exceed 3? True

In plain terms: is recorded protein stability index at least 3 for QHYQQYMQQLYQVQLAQQQAALQK [ACBD3] ? False
